Below, each of the compounds is paired with its reported N2 permeability value.
Give just the numeric value; Barrer need not be written.

Known results for compounds:
compound	N2 permeability, Barrer
*Oc1ccc(N2C(=O)CCC23CCC(=O)N3c2ccc(Oc3c(F)c(F)c(COC(C4CCCC(C(OCc5c(F)c(F)c(*)c(F)c5F)(C(F)(F)F)C(F)(F)F)C4)(C(F)(F)F)C(F)(F)F)c(F)c3F)cc2)cc1 (repeat unit)	0.46
*CC(*)c1ccc(F)cc1 (repeat unit)	0.83
*Oc1ccc(C(=O)c2ccc(Oc3c(C)cc(-c4cc(C)c(*)c(C)c4)cc3C)cc2)cc1 (repeat unit)	0.971
*C(=C(*)c1ccc2c(c1)C1(CC1)c1ccccc1-2)c1ccc([Si](C)(C)C)cc1 (repeat unit)	540
*c1ccc2c(-c3c(OC(C)=O)ccc4cc(N5C(=O)c6ccc(C(=O)c7ccc8c(c7)C(=O)N(*)C8=O)cc6C5=O)ccc34)c(OC(C)=O)ccc2c1 (repeat unit)	0.15
*/C(C)=C(/*)[Si](C)(C)c1ccccc1 (repeat unit)	1.2
*C(=C(*)c1ccc2c(c1)C(C)(C)c1ccccc1-2)c1cc(F)cc(F)c1 (repeat unit)	1700

*CC(*)c1ccncc1 (repeat unit) yielded N2 permeability of 0.13

###

Attribute: O2 permeability
Respond with the bare value in Barrer.

> print(dat)
                                   compound  unit.spec  result.value
1                    *CC(C)O* (repeat unit)     Barrer            28
2              *CC(*)c1ccccc1 (repeat unit)     Barrer           2.9
3  *C(=O)c1ccc(C2(c3ccc(C(=O)c4ccc(Oc5ccc(C(=O)c6ccc(Oc7ccc(*)cc7)cc6)cc5)cc4)cc3)OC(=O)c3ccccc32)cc1 (repeat unit)     Barrer          0.68
4  *CC(*)(C)C(=O)OCCOCCOCCOCC (repeat unit)     Barrer           3.9
5  *C(=C(*)c1ccc2c(c1)C(C)(C)c1ccccc1-2)c1ccc(Br)cc1 (repeat unit)     Barrer          5000
6  *c1cc2c(cc1O)C1(CC2(C)C)CC(C)(C)c2cc(N3C(=O)C4C5C=CC(C6C(=O)N(*)C(=O)C56)C4C3=O)c(O)cc21 (repeat unit)     Barrer            23
7  *C(F)(F)C1(F)OC(F)(F)C(F)(F)C1(F)C(*)(F)F (repeat unit)     Barrer            16
8  *Oc1cc2c(cc1O*)C(C)(C)CC1(CC(C)(C)c3cc4c(cc3O1)Oc1c(C#N)c(*)c(*)c(C#N)c1O4)O2 (repeat unit)     Barrer           212

Next item in the queue.
The reported O2 permeability of the compound *C(=C(*)c1ccc2c(c1)C1(CC1)c1ccccc1-2)c1ccccc1 (repeat unit) was 660

###

attribute-measured: log10 of N2 permeability (log10 of the value in Barrer)
In our notation, the value equals log10 of N2 permeability in Barrer.

The following compounds have reported results that may help.
compound	log10 of N2 permeability
*CC(*)c1ccc(S(=O)(=O)[O-])cc1 (repeat unit)	-1.00
*Oc1c(C)cc(*)c([N+](=O)[O-])c1C (repeat unit)	0.38
*c1ccc(Oc2ccc(C3(c4ccc(Oc5ccc(N6C(=O)c7ccc(C(c8ccc9c(c8)C(=O)N(*)C9=O)(C(F)(F)F)C(F)(F)F)cc7C6=O)cc5)cc4)OC(=O)c4ccccc43)cc2)cc1 (repeat unit)	-0.02
*Oc1cc(C)c(C2(c3cc(C)c(Oc4ccc(S(=O)(=O)c5ccc(*)cc5)cc4)cc3C)OC(=O)c3ccccc32)cc1C (repeat unit)	-0.68
*c1ccc(C(C)(C)c2ccc(-n3c(=O)c4cc5c(=O)n(*)c(=O)c5cc4c3=O)cc2)cc1 (repeat unit)	0.18

The record that follows has no log10 of N2 permeability shown yet.
log10 of N2 permeability in this record for *=CC1CC(C=*)C2C(=O)N(C3CCCC3)C(=O)C12 (repeat unit) : -0.35

###

Parameter: N2 permeability. Scope: all listed entries.
Please give a number only; it is taken to be in Barrer.

compound	result-value
*CCO* (repeat unit)	1.32

Value of N2 permeability reported for the compound *Oc1ccc(C(C)(C)c2ccc(OC(=O)c3cc(C(*)=O)cc(C(C)(C)C)c3)c(C)c2)cc1C (repeat unit) is 0.393

So, *C(=C(*)c1ccc2c(c1)C(C)(C)c1ccccc1-2)c1ccc(F)cc1 (repeat unit) ? Its N2 permeability was 4700

So for *c1cccc(Oc2ccc(C(c3ccc(Oc4cccc(N5C(=O)c6ccc(C(c7ccc8c(c7)C(=O)N(*)C8=O)(C(F)(F)F)C(F)(F)F)cc6C5=O)c4)cc3)(C(F)(F)F)C(F)(F)F)cc2)c1 (repeat unit) , the logged N2 permeability turned out to be 0.241

What the record says about *CC(*)c1ccc(Br)cc1 (repeat unit) : N2 permeability is 0.32

N2 permeability for *Nc1ccc(*)cc1 (repeat unit) is 0.0165

N2 permeability reported for this compound *c1ccc(*)c(C(=O)c2ccccc2)c1 (repeat unit) : 0.4

According to the records, this compound *CC=C(C*)[Si](C)(OC(C)C)OC(C)C (repeat unit) displays N2 permeability of 25.4

GET /value?item= *CC(*)(C)C(=O)OCCOCCOCC (repeat unit) &field=N2 permeability returns 3.6

###

Overview of recorded log10 CO2 permeability for various compounds
The base-10 logarithm of CO2 permeability, taken with CO2 permeability in Barrer, is what appears here.

Worked cases, answers included:
compound	attribute-measured	result-value
*CC(*)OCC1CC2CC1C1CCCC21 (repeat unit)	log10 CO2 permeability	0.45
*CC(*)C#N (repeat unit)	log10 CO2 permeability	-2.74
*CC(*)OC(=O)c1ccccc1 (repeat unit)	log10 CO2 permeability	0.80

The recorded log10 CO2 permeability for entry *OC(=O)c1cccc(C(=O)Oc2ccc(C(C)(C)c3ccc(O*)c(C)c3)cc2C)c1 (repeat unit) equals 0.40

The recorded log10 CO2 permeability for *c1c(C)cc(-c2cc(C)c(N3C(=O)c4cc5c(cc4C3=O)C3(C)c4ccccc4C5(C)c4cc5c(cc43)C(=O)N(*)C5=O)c3ccccc23)c2ccccc12 (repeat unit) is 3.53

For this compound ( *C/C=C\C* (repeat unit) ), measured log10 CO2 permeability is 2.14

For *CCO* (repeat unit) the compound record lists log10 CO2 permeability as 1.61

Entry *c1ccc2c(c1)-c1nc3ccc(-c4ccc5c(c4)nc4n5C(=O)c5cc(C(c6ccc(-c7nc8cc(C(c9ccc%10oc(-c%11ccc(C(*)(C(F)(F)F)C(F)(F)F)cc%11)nc%10c9)(C(F)(F)F)C(F)(F)F)ccc8o7)cc6)(C(F)(F)F)C(F)(F)F)ccc5-4)cc3n1C2=O (repeat unit) ; log10 CO2 permeability = 3.26

Lab note: *Oc1c(C)cc(*)cc1C (repeat unit) gave log10 CO2 permeability of 1.82

###

Sorting guide: entries reporting CH4 permeability beneath 2 Barrer go in the class 1 pile, the rest go in the class 0 pile.

compound	label
*c1ccc(Oc2ccc(N3C(=O)c4cc5c(cc4C3=O)S(=O)(=O)c3cc4c(cc3S5(=O)=O)C(=O)N(*)C4=O)cc2)cc1 (repeat unit)	class 1
*c1c(C)c(C)c(-n2c(=O)c3cc4oc5cc6c(cc5oc4cc3c2=O)C2(CC(C)(C)c3cc4oc5cc7c(=O)n(*)c(=O)c7cc5oc4cc32)CC6(C)C)c(C)c1C (repeat unit)	class 0
*c1ccc(Oc2cc3c(cc2C)OC2(CC3(C)C)CC(C)(C)c3cc(Oc4ccc(*)cc4)c(C)cc3O2)cc1 (repeat unit)	class 1
*c1ccc(C(C)(C)c2cccc(N3C(=O)c4ccc(C(c5ccc6c(c5)C(=O)N(*)C6=O)(C(F)(F)F)C(F)(F)F)cc4C3=O)c2)cc1 (repeat unit)	class 1

Kindly consider the entry below.
Input: Please check: CH4 permeability for *c1ccc(Cc2ccc(N3C(=O)c4ccc(-c5ccc6c(c5)C(=O)N(*)C6=O)cc4C3=O)cc2F)c(F)c1 (repeat unit) , strictly under 2 Barrer or not?
Output: class 1

###

# binning rule on O2 permeability: bin A (below 2 Barrer), bin B (2 Barrer to below 20 Barrer), bin C (20 Barrer or more)

Would you please look over these solved cases?
compound	label
*c1ccc(-c2ccc(C(*)(c3ccccc3)C(F)(F)F)cc2)cc1 (repeat unit)	bin C
*C/C(C)=C(\C)C* (repeat unit)	bin B
*c1ccc(C(c2ccc(N3C(=O)c4ccc(C(=O)c5ccc6c(c5)C(=O)N(*)C6=O)cc4C3=O)cc2)(C(F)(F)F)C(F)(F)F)cc1 (repeat unit)	bin B
*O[Si](C)(C)CCCCCC[Si](*)(C)C (repeat unit)	bin C
*c1cc(C(c2ccc(O)c(N3C(=O)c4ccc(C(c5ccc6c(c5)C(=O)N(*)C6=O)(C(F)(F)F)C(F)(F)F)cc4C3=O)c2)(C(F)(F)F)C(F)(F)F)ccc1O (repeat unit)	bin B

Input: Where would *C(=C(*)c1ccc2c(c1)C(C)(C)c1ccccc1-2)c1ccc(F)cc1 (repeat unit) land among the classes by reported O2 permeability?
Output: bin C

Input: Could you place *Oc1ccc(C(C)(C)c2ccc(OC(=O)c3cc(C(*)=O)cc(C(C)(C)C)c3)c(C(C)C)c2)cc1C(C)C (repeat unit) in its proper category? Many thanks.
Output: bin B

Input: Hi, small favor: classify *Nc1ccc(S(=O)(=O)c2ccc(NC(=O)c3cc(C(*)=O)cc(-c4ccccc4)c3)cc2)cc1 (repeat unit) by its O2 permeability when you get a moment.
Output: bin A

Input: Sort into band: *CCC(F)(Cl)C(*)(F)F (repeat unit)
Output: bin A

Input: Just checking, what class would you give *CC(*)CC(C)C (repeat unit) here?
Output: bin C

Input: Class for *c1ccc(-c2cc(C)c(-c3ccc(*)cc3C)cc2C)c(C)c1 (repeat unit) ?
Output: bin B

Input: Assign a bin to *c1ccc(C(C)(C)c2ccc(-n3c(=O)c4cc5c(=O)n(*)c(=O)c5cc4c3=O)cc2)cc1 (repeat unit)
Output: bin B

Input: // bin(item) where item = *c1ccc(*)c(C(=O)c2ccccc2)c1 (repeat unit)
Output: bin B

Input: Looking at *c1cccc(-c2nc3cc(-c4ccc5[nH]c(*)nc5c4)ccc3[nH]2)c1 (repeat unit) , which class would you pick?
Output: bin A
